Value source: the supplement of paper PMC9170038

Entries and their measured apparent KD of K4 kissing-loop reporter follow.
test system: K4 kissing-loop RNA reporter; assay: apparent KD of K4 kissing-loop reporter; higher = weaker reporter binding; details: Eterna round: R107; input ligand: theophylline 20 uM;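 also: bound reporter read as fluorescence of individual clusters on recovered sequencing chips by microscopy, with normalized cluster intensities fitted with a binding model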
Return type: number; implicit unit nM.

Check out these entries, answers already filled in.
{"sequence record": "GACUACCGGGCGGCCGCCACUGGGCUCCGAGUGAUGUUCGGAAAGACUCAUACACUGCUGUCAGACAGGACCGGGCCAAGGCGCA [theeternabot_sameState_KL_Trp_B_5]", "outcome measure": "apparent KD of K4 kissing-loop reporter", "endpoint value": 201}
{"sequence record": "GCAGUGAUGUUGCAACCGCGUACGAUGCCUCGAGGACCGGUACGGCCGCCACUCGUCCUGGUUCAGGAGCUACAGACAUAGCUCA [theeternabot_sameState_KL_Trp_A_2]", "outcome measure": "apparent KD of K4 kissing-loop reporter", "endpoint value": 408}
{"sequence record": "GGGUGGCAGGCGGCCGCCACUCUGAGGGUCCACAGUGAUGUUGUGGGCGCGUAAGCGUCUUCAUAGAGGACCGGGUUUGUUGUUC [Same State Tryptophan B GF 24]", "outcome measure": "apparent KD of K4 kissing-loop reporter", "endpoint value": 403}

Shifting focus to the sequence that follows.
Problem: Which apparent KD of K4 kissing-loop reporter is reported with K4 kissing-loop RNA reporter for this entry: AAAAUAAACCAGUGAUGUUGGUGUCCAGAUACCAGCGAUAAUCAUCGCCCUUGGCAGCUGCGGACGUACAAAAUAAGUACGUCCU [MatMod 12 - Jieux - Same State - Theophylline A] ?
Solution: 399

====

tested on: MS2 coat protein; experiment: apparent KD of MS2 coat protein; designed switch direction (-1 OFF switch, 1 ON switch): -1; higher = weaker reporter binding; conditions: input ligand: FMN 200 uM
Reported apparent KD of MS2 coat protein values for the following sequences.
Could you give the number and then its unit, please?

{"sequence record": "GUGGGUCCUCACGGUGCUACAUGAGGAUCACCCAUGUGGAUUGAGGAUAUCGUAACCCUACGGGACGAGAAGGCAGUUUACUGU [Ex NG3 #100] (Eterna round: R96, puzzle: Exclusion NG 3)", "apparent KD of MS2 coat protein": "48.5 nM"}

Problem: Query (sequence): CGAUGCUCGUGUCCACAUGAGGAUCACCCAUGUCGAGUUAGCGAGGAUAUCGGUAGCACAUAGCACGAGAAGGCGCGAACCUGA [Ex NG3 #28] (Eterna round: R96, puzzle: Exclusion NG 3) ; field requested: apparent KD of MS2 coat protein
Solution: 58.4 nM

Problem: Can you share its apparent KD of MS2 coat protein? I mean this sequence: GACCUACAUGAGGAUCACCCAUGUCAGGAUAUGUGGCGGAGUACGAACAGUCCAAGCGACAGAAGGGACAACAG [Eternabot (Original) Solution 24] (Eterna round: R97, puzzle: Exclusion 1)
Solution: 27.8 nM

Problem: Fill in the blank: the reported apparent KD of MS2 coat protein of UAUCAUCAUGUAGGAUAUGCGUGGCAAAGCUAUGCAGAAGGACAUGAGGAUCACCCAUGUUCUAGCGUCUGCGUACAGAUGCUA [Mat - Exclusion NG 1 - Mod of JL - D74] (Eterna round: R96, puzzle: Exclusion NG 1) is ____.
Solution: 247 nM

Problem: I have this sequence here, CCCACCUCAUGAACAACAUGAGGAUCACCCAUGUUGAAGACUAAGGAUAUCGUACUCGAUGAAUGCGAGAAGGUGGCACUUCGA [Eternabot solution 36] (Eterna round: R96, puzzle: Exclusion NG 3) , and I need its recorded apparent KD of MS2 coat protein.
Solution: 37.3 nM

Problem: What apparent KD of MS2 coat protein value was documented for this sequence, GCAAGCUUUUGCUCGCCUUACAUGAGGAUCACCCAUGUGGGCCCGGGCCCGGGCCCGCCGGGCCCGGGCCCGGGCCC [-59.4, -80.7 kcal, A 10%] (Eterna round: R97, puzzle: Sensor, turn-off variant 1) ?
Solution: 26.5 nM

Problem: Return reported apparent KD of MS2 coat protein; argument: GAAAAGGUAGAGGAUAUUUCAGGUCAAAGCUGCAAAGAAGGCUGCACAUGAGGAUCACCCAUGUGGUCUUAAAA [Mod of Quesina 7 - Jieux - Exclusion 6] (Eterna round: R97, puzzle: Exclusion 6)
Solution: 90.4 nM

Problem: Sample UGUUGUUACGCAGGAUAUGUAUGAGGAUCACCCAUUAAUAAAUUUUAACCACGAGGAUCACCCGUGUAGAAGGGCGGGUUAACA [pwkr exNG2 2xF5 1xFMN.13] (Eterna round: R96, puzzle: Exclusion NG 2) — what was its apparent KD of MS2 coat protein?
Solution: 96.3 nM

Problem: May I ask what apparent KD of MS2 coat protein has been recorded for AAGUUCAGAGGAUAUGCCCAGCUCGACAUGAGGAUCACCCAUGUAUCCACAGAACGUACGGCAGAAGGCUGCAAUA [Eternabot (Original) Solution 9] (Eterna round: R97, puzzle: Exclusion 5) ?
Solution: 69.4 nM
